Tested on: Escherichia coli TOP10
MEASUREMENT_DESCRIPTION: shrunken log2 fold change of peptide-encoding DNA abundance (4.5 h post-induction vs induction); higher = less antimicrobial activity (less host growth inhibition)
STUDY_CONDITIONS: time post-induction: 4.5 h; library: site-saturation at positions 5, 18, 19, 20
This section presents sequences with their documented shrunken log2 fold change values.
Please respond with just the number, no unit label.

Recorded results for 5 sequences are shown here.
RRIRARPPRLPRPRPRPACPPRP ... 0.255
RRIRDRPPRLPRPRPRPHENPRP ... 0.116
RRIRIRPPRLPRPRPRPTKDPRP ... -0.491
RRIRWRPPRLPRPRPRPLIWPRP ... 0.515
RRIRRRPPRLPRPRPRPCLFPRP ... -0.0047

# get_value(readout='shrunken log2 fold change', item= RRIRVRPPRLPRPRPRPRHDPRP )
0.129

# get_value(readout='shrunken log2 fold change', item= RRIRERPPRLPRPRPRPFPFPRP )
-0.629

# get_value(readout='shrunken log2 fold change', item= RRIRNRPPRLPRPRPRPGHWPRP )
0.291

# get_value(readout='shrunken log2 fold change', item= RRIRYRPPRLPRPRPRPEIKPRP )
-0.114

# get_value(readout='shrunken log2 fold change', item= RRIRERPPRLPRPRPRPHNKPRP )
-0.787

# get_value(readout='shrunken log2 fold change', item= RRIRMRPPRLPRPRPRPSGSPRP )
0.133

# get_value(readout='shrunken log2 fold change', item= RRIRKRPPRLPRPRPRPVCCPRP )
0.517

# get_value(readout='shrunken log2 fold change', item= RRIRKRPPRLPRPRPRPPNLPRP )
0.492

# get_value(readout='shrunken log2 fold change', item= RRIRNRPPRLPRPRPRPLNWPRP )
-0.269

# get_value(readout='shrunken log2 fold change', item= RRIRDRPPRLPRPRPRPPDMPRP )
0.123

----------
This section presents sequences with their documented shrunken log2 fold change values.
System: Escherichia coli TOP10;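 further: peptides expressed intracellularly from a pBAD plasmid library in pooled LB shake-flask culture, induced with 0.3% L-arabinose, DNA abundance read by NGS, three biological replicates, DESeq2 with apeglm shrinkage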
MEASUREMENT_DESCRIPTION: shrunken log2 fold change of peptide-encoding DNA abundance (4.5 h post-induction vs induction); higher = less antimicrobial activity (less host growth inhibition)
STUDY_CONDITIONS: time post-induction: 4.5 h; library: site-saturation at positions 5, 18, 19, 20

Recorded results for 2 sequences are shown here.
RRIRERPPRLPRPRPRPTTWPRP ... 0.0447
RRIRLRPPRLPRPRPRPSHEPRP ... 0.031

# get_value(readout='shrunken log2 fold change', item= RRIRERPPRLPRPRPRPDNMPRP )
-0.2

# get_value(readout='shrunken log2 fold change', item= RRIRFRPPRLPRPRPRPTDTPRP )
-0.263

# get_value(readout='shrunken log2 fold change', item= RRIRHRPPRLPRPRPRPTHDPRP )
0.124

# get_value(readout='shrunken log2 fold change', item= RRIRLRPPRLPRPRPRPIKQPRP )
-0.00202

# get_value(readout='shrunken log2 fold change', item= RRIRPRPPRLPRPRPRPWDGPRP )
-0.0681

# get_value(readout='shrunken log2 fold change', item= RRIRIRPPRLPRPRPRPCVTPRP )
-0.22

# get_value(readout='shrunken log2 fold change', item= RRIRTRPPRLPRPRPRPTREPRP )
-0.157

# get_value(readout='shrunken log2 fold change', item= RRIRHRPPRLPRPRPRPWQSPRP )
-0.0359

# get_value(readout='shrunken log2 fold change', item= RRIRARPPRLPRPRPRPMSFPRP )
-0.0283

# get_value(readout='shrunken log2 fold change', item= RRIRERPPRLPRPRPRPKLIPRP )
-0.0786

# get_value(readout='shrunken log2 fold change', item= RRIRWRPPRLPRPRPRPINRPRP )
-0.328

# get_value(readout='shrunken log2 fold change', item= RRIRDRPPRLPRPRPRPKKFPRP )
0.117

# get_value(readout='shrunken log2 fold change', item= RRIRRRPPRLPRPRPRPEDSPRP )
0.0554

# get_value(readout='shrunken log2 fold change', item= RRIRDRPPRLPRPRPRPWMSPRP )
-0.376

# get_value(readout='shrunken log2 fold change', item= RRIRHRPPRLPRPRPRPQWMPRP )
0.0263

# get_value(readout='shrunken log2 fold change', item= RRIRARPPRLPRPRPRPDNYPRP )
0.0577

# get_value(readout='shrunken log2 fold change', item= RRIRYRPPRLPRPRPRPCCVPRP )
-0.422

# get_value(readout='shrunken log2 fold change', item= RRIRARPPRLPRPRPRPMCGPRP )
0.121

# get_value(readout='shrunken log2 fold change', item= RRIRCRPPRLPRPRPRPDRIPRP )
-0.0911

All values here come from the supplement of paper PMC9112550.
